Listed next: entries and their corresponding IC50.
- target.of.assay: RORγ ligand binding domain (LBD) (Homo sapiens)
- Construct: made in house; host or cells: E. coli BL-21 (BL3), vector pDEST15
- Sequence (P51449 269-508 limits assumed): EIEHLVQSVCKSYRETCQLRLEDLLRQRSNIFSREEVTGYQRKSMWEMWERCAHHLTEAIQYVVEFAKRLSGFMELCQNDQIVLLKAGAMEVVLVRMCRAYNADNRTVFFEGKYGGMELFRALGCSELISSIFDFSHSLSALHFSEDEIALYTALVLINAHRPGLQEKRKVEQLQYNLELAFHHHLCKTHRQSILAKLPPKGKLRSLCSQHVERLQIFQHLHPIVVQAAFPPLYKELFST
- method.summary: TR-FRET Activity Assay (ligand sensing, RORγ-LBD / coactivator peptide interaction, LANCE)
- Format: biochemical
- condition.parameters: first value of the cell FRET/FF/REN; TR-FRET activity assay; read-out: pIC50 (FRET) (converted)

{"smiles.repr": "Cc1c(C(=O)N[C@H]2C[C@H](C(=O)O)C2)cc(-c2cc(C(=O)NCC(F)(F)F)cc(C3(C)CC3)c2)n1CC1CCCCC1", "IC50 [nM]": 2000}
{"smiles.repr": "Cc1c(C(=O)NCCCN2CCOCC2)cc(-c2cc(C(C)(C)C)cc(C(C)(C)C)c2)n1CC1CCCCC1", "IC50 [nM]": 1260}
{"smiles.repr": "Cc1c(C(=O)N2CCC(C)(C(=O)O)CC2)cc(-c2cc(C(C)(C)C)c3c(c2)C2(CCO3)CC2)n1CC1CCCCC1", "IC50 [nM]": 1580}
{"smiles.repr": "Cc1c(C(=O)NCC(C)(C)O)cc(-c2cc(C(C)(C)C)cc(S(=O)(=O)N(C)C(C)(C)C)c2)n1CC1CCCCC1", "IC50 [nM]": 316}
{"smiles.repr": "Cc1c(C(=O)NCC2(C(N)=O)CCOCC2)cc(-c2cc(C(C)(C)C)c3c(c2)C2(CCO3)CC2)n1CC1CCCCC1", "IC50 [nM]": 398}
{"smiles.repr": "Cc1c(C(=O)N[C@H]2C[C@H](C(=O)O)C2)cc(-c2cc(OC(F)(F)F)cc(C(=O)NC(C)(C)C)c2)n1CC1CCCCC1", "IC50 [nM]": 2000}
{"smiles.repr": "Cc1c(C(=O)NCC2(C(N)=O)CCOCC2)cc(-c2cc(C(C)(C)C)cc(C3(C)CC3)c2)n1CC1CCCCC1", "IC50 [nM]": 316}

---

pIC50 (FF) listing for selected compounds.
- target.of.assay: RORγ (UniProt P51449)
- method.summary: RORγ Gal4 Reporter Gene Assay in 293T cells (firefly and renilla luciferase)
- Format: cell-based, human

{"compound": "Cc1c(C(=O)NCC2(C)COC2)cc(-c2ccc(S(=O)(=O)NC(C)(C)C)c(C(C)(C)C)c2)n1CC1CCCCC1", "target.of.assay": "RORγ (UniProt P51449)", "pIC50 (FF)": "6.3/7.5/7.4"}
{"compound": "CC(C)(C)NS(=O)(=O)c1ccc(-c2cc(C(=O)NC3CCOCC3)c(CO)n2CC2CCCCC2)cc1C(C)(C)C", "target.of.assay": "RORγ (UniProt P51449)", "pIC50 (FF)": "6.0/7.6/7.7"}
{"compound": "Cc1c(C(=O)NCC2(O)CCS(=O)(=O)CC2)cc(-c2cc(C(C)(C)C)c3c(c2)C2(CCO3)CC2)n1CC1CCCCC1", "target.of.assay": "RORγ (UniProt P51449)", "pIC50 (FF)": "6.2/7.1/7.1"}
{"compound": "Cc1c(C(=O)NC2COC2)cc(-c2cc(C(=O)NC(C)(C)C)cc(C(C)(C)C)c2)n1CC1CCCCC1", "target.of.assay": "RORγ (UniProt P51449)", "pIC50 (FF)": "6.1/7.6/7.7"}
{"compound": "COC1CN(C(=O)c2cc(-c3cc(C(C)(C)C)cc(C(C)(C)C)c3)n(CC3CCCCC3)c2C)C1", "target.of.assay": "RORγ (UniProt P51449)", "pIC50 (FF)": "6.5/6.4/6.3"}
{"compound": "Cc1c(C(=O)NC2CCOCC2)cc(-c2ccc(S(=O)(=O)NC(C)(C)C)c(C(F)(F)F)c2)n1CC1CCC(F)CC1 (stereo not shown)", "target.of.assay": "RORγ (UniProt P51449)", "pIC50 (FF)": "6.3/7.4/7.6"}
{"compound": "Cc1c(C(=O)NCC2(O)CCOCC2)cc(-c2cc(C(=O)NC(C)(C)C)cc(C3(C)CC3)c2)n1CC1CCCCC1", "target.of.assay": "RORγ (UniProt P51449)", "pIC50 (FF)": "6.1/7.4/7.6"}

---

- target.of.assay: RORγ (UniProt P51449)
- method.summary: RORγ Gal4 Reporter Gene Assay in 293T cells (firefly and renilla luciferase)
- Format: cell-based, human
- condition.parameters: third value of the cell; Gal4 reporter gene assay in 293T cells, renilla normalised luciferase
The compounds listed here are annotated with their pIC50 (REN).

{"compound": "Cc1c(C(=O)N2CCC(C)(C(=O)O)CC2)cc(-c2ccc(S(=O)(=O)NC(C)(C)C)c(C(F)(F)F)c2)n1CC1CCCCC1 [17/224]", "pIC50 (REN)": 7.2}
{"compound": "Cc1c(C(=O)NC2COC2)cc(-c2cc(C(C)(C)C)cc(C3(C)CC3)c2)n1CC1CCCCC1 [1/81]", "pIC50 (REN)": 7.4}
{"compound": "Cc1c(C(=O)NCCC(C)(C)C(=O)O)cc(-c2cc(C(C)(C)C)cc(C3(C)CC3)c2)n1CC1CCCCC1 [17/73]", "pIC50 (REN)": 7.3}
{"compound": "Cc1c(C(=O)NC2CCOCC2)cc(-c2ccc(-c3ccnn3C(C)C)c(C(F)(F)F)c2)n1CC1CCCCC1 [17/249]", "pIC50 (REN)": 6.7}
{"compound": "Cc1c(C(=O)NCC(C)(C)C(=O)N2CCOCC2)cc(-c2cc(C(C)(C)C)c3c(c2)C2(CCO3)CC2)n1CC1CCCCC1 [Example 11]", "pIC50 (REN)": 6.5}
{"compound": "Cc1c(C(=O)N[C@H]2C[C@H](C(=O)O)C2)cc(-c2cc(C(=O)N[C@@H](C)C(F)(F)F)cc(C3(C)CC3)c2)n1CC1CCCCC1 [17/358]", "pIC50 (REN)": 6.2}
{"compound": "Cc1c(C(=O)NCCS(C)(=O)=O)cc(-c2cc(C(C)(C)O)cc(C3(C)CC3)c2)n1CC1CCCCC1 [17/317]", "pIC50 (REN)": 6.5}
{"compound": "Cc1c(C(=O)NCC(C)(C)C(=O)NCCCCO)cc(-c2cc(C(C)(C)C)c3c(c2)C2(CCO3)CC2)n1CC1CCCCC1 [11/7]", "pIC50 (REN)": 7.2}
{"compound": "Cc1c(C(=O)NC2CCOCC2)cc(-c2ccc(S(=O)(=O)NC(C)(C)C)c(C(F)(F)F)c2)n1CC1CCC1 [17/215]", "pIC50 (REN)": 7.3}
{"compound": "Cc1c(C(=O)N[C@H]2CC[C@H](C(=O)O)CC2)cc(-c2cc(C(C)(C)C)c3c(c2)C2(CCO3)CC2)n1CC1CCCCC1 [17/57]", "pIC50 (REN)": 7.5}
{"compound": "Cc1c(C(=O)NCC(C)(C)C(=O)NCCC(=O)O)cc(-c2cc(C(C)(C)C)c3c(c2)C2(CCO3)CC2)n1CC1CCCCC1 [11/3]", "pIC50 (REN)": 6.5}
{"compound": "Cc1c(C(=O)NCC(C)(C)C(=O)O)cc(-c2cc(C(C)(C)C)cc(C3(C)CC3)c2)n1CC1CCCCC1 [17/60]", "pIC50 (REN)": 7.6}
{"compound": "Cc1c(C(=O)NC23CCC(C(=O)O)(CC2)C3)cc(-c2cc(C(C)(C)O)cc(C3(C)CC3)c2)n1CC1CCCCC1 [17/301]", "pIC50 (REN)": 7.6}
{"compound": "Cc1c(C(=O)NCCCO)cc(-c2cc(C(C)(C)C)cc(C(C)(C)C)c2)n1CC1CCCCC1 [1/65]", "pIC50 (REN)": 6.6}
{"compound": "Cc1c(C(=O)NC2COC2)cc(-c2cc(C(C)(C)C)cc(C(C)(C)C)c2)n1CCC1CCCC1 [1/116]", "pIC50 (REN)": "6.9/6.9/6.9"}
{"compound": "Cc1c(C(=O)NCC(C)(C)C(N)=O)cc(-c2ccc(S(=O)(=O)NC(C)(C)C)c(C(C)(C)C)c2)n1CC1CCCCC1 [1/125]", "pIC50 (REN)": 7.4}
{"compound": "Cc1c(C(=O)NC2CCOCC2)cc(-c2ccc(CC(=O)NC(C)(C)C)c(C(F)(F)F)c2)n1CC1CCCCC1 [17/131]", "pIC50 (REN)": 6.9}
{"compound": "Cc1c(C(=O)NCC2CCS(=O)(=O)CC2)cc(-c2ccc(S(=O)(=O)NC(C)(C)C)c3ccccc23)n1CC1CCCCC1 [17/265]", "pIC50 (REN)": 8.0}
{"compound": "Cc1c(C(=O)N2CC3(CCOCC3)C2)cc(-c2ccc(S(=O)(=O)NC(C)(C)C)c(C(F)(F)F)c2)n1CC1CCCCC1 [17/211]", "pIC50 (REN)": 8.0}
{"compound": "CC(C)(C)NS(=O)(=O)c1ccc(-c2cc(C(=O)NCCC(C)(C)C(=O)O)c(F)n2CC2CCCCC2)c2ccccc12 [20/9]", "pIC50 (REN)": 7.6}
{"compound": "CCNC(=O)NC(C)(C)CNC(=O)c1cc(-c2cc(C(C)(C)C)c3c(c2)C2(CCO3)CC2)n(CC2CCCCC2)c1C [17/120]", "pIC50 (REN)": 6.0}
{"compound": "CC(C)(C)NS(=O)(=O)c1ccc(-c2cc(C(=O)NC3CCOCC3)c(F)n2CC2CCCCC2)cc1C(F)(F)F [20/1]", "pIC50 (REN)": 7.3}
{"compound": "Cc1c(C(=O)NC2COC2)cc(-c2ccc(C(=O)NCC(C)(C)C)c(C(C)(C)C)c2)n1CC1CCCCC1 [1/32]", "pIC50 (REN)": 6.2}
{"compound": "Cc1c(C(=O)NC2CCOCC2)cc(-c2cc(C(F)(F)F)c3c(c2)C(C)(C)C(=O)N3C)n1CC1CCCCC1 [17/148]", "pIC50 (REN)": 7.0}
{"compound": "Cc1c(C(=O)NC2CCOCC2)cc(-c2ccc(S(=O)(=O)NC(C)(C)C)c(C(F)(F)F)c2)n1[C@H](C)C1CCCCC1 [17/254]", "pIC50 (REN)": 6.6}
{"compound": "COC(=O)[C@H]1C[C@H](NC(=O)c2cc(-c3cc(C(C)(C)C)cc(C4(C)CC4)c3)n(CC3CCCCC3)c2F)C1 [20/2]", "pIC50 (REN)": 7.2}
{"compound": "Cc1c(C(=O)NCC2(O)CCS(=O)(=O)CC2)cc(-c2ccc(S(=O)(=O)NC(C)(C)C)c3ccccc23)n1CC1CCCCC1 [17/268]", "pIC50 (REN)": 7.8}
{"compound": "Cc1c(-c2cc(C(=O)N[C@H]3C[C@H](C(=O)O)C3)c(C)n2CC2CCCCC2)ccc(S(=O)(=O)NC(C)(C)C)c1C [17/272]", "pIC50 (REN)": 6.9}
